B1: LINE1-full (parent)
chain: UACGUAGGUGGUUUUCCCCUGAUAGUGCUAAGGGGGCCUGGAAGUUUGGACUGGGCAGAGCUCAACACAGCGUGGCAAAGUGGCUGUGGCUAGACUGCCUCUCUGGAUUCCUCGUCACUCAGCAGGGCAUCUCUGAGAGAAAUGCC

variants of: B1; experiment: self-cleavage, relative activity (ratio to wild type); higher = more cleavage; in vitro, sequencing; the parent is a self-cleaving ribozyme
Please note: TRUE applies when self-cleavage is 0.9 or greater, and FALSE applies otherwise.

residues="UGCGUAGGUGGUUUUCCCCUGAUAGUGCUAAGGGGGCCUGGAGGUUUGGACUGGGCAGAGCUCAACACAGCGUGGCAAAGUGGCUGUGGCUAGACUGCCUCUCUGGAUUCCUCGUCACUCAGCAGGGCAUCUCUGAGAGAAAUGCC [A2G A43G]" class_label=FALSE
residues="UACGUAGGUGGUUUUCCCCUGAUAGUGCUAAGGGAGCCUGGAAGUUUGGACUGGGCAGAGCUCAACACAGCGUGGCAAAGUGGCUGUGGCUAGACUGCCUCUCUGGAUUCCUCGUCACUCAGCAGGGCAUCUCUGAGGGAAAUGCC [G35A A138G]" class_label=TRUE
residues="UACGUAGGUGGUUUUCCCCUGAUAGUGCUAAGGGGGCCUGGAAGUUUGGACUGGGCAGAGCUCGACUCAGCGUGGCAAAGUGGCUGUGGCUAGACUGCCUCUCUGGAUUCCUCGUCACUCAGCAGGGCAUCUCUGAGAGAAAUGCC [A64G A67U]" class_label=FALSE
residues="UACGUAGGUGGUUUUCCCCUGAUAGUGCUAAGGGGGCCUGGAAGUUUGGACUGGGCAGAGCUCAACACAGCGUGGCAAAGUGGCUGUGGCCAGACUGCCUCCCUGGAUUCCUCGUCACUCAGCAGGGCAUCUCUGAGAGAAAUGCC [U91C U102C]" class_label=FALSE
residues="UACGUAGGUGGUUUUCCCCUGAUAGUGCUAAGGGGGCCUGGAAGUUUGGACUGGGCAGAGCUCAACACAGCGUGGCAAAGUGGCUGUGGCUAGACUGCCUCUCUGGAUUCCUCGUCGCUCAGCAUGGCAUCUCUGAGAGAAAUGCC [A117G G125U]" class_label=TRUE
residues="UACGUAGGUGGUUUUCCCCUGAUAGUGCUAAGGGGGCCUGGAAGUUUGGACUGGGCAGUGCUCAACACAGCGUGGCAAAGUGGCUGUGGCUAGACCGCCUCUCUGGAUUCCUCGUCACUCAGCAGGGCAUCUCUGAGAGAAAUGCC [A59U U96C]" class_label=FALSE
residues="UACGUAGGUGGUUUUCCCCUGAUAGUGCUGAGGGGGCCUGGAAGUUUGGACUGGGCAGAGCUCAACACAGCGUGGCAAAGUGGCUGUGGCUAGACUGCCUCUCUGGAUUCCUCGUCACUCAGCAGGGCAUCUCUGAGAGACAUGCC [A30G A141C]" class_label=FALSE
residues="UACGUAGGUGGUUUUCCCCUGAUAGUGCUAAGGGGGCCUGGAAGUUAGGACUGGGCAGAGCUCAACACAGCGUGGCAAAGUGGCUGUGGCUAGACUGCCUCUCUGGAUUCCUCGUCACUCAGCAGGGCAUCUCCGAGAGAAAUGCC [U47A U134C]" class_label=TRUE
residues="UACGUAGGUGGUUUUCCCCUGAUAGUGCUAAGGGGGCCUGGAAGUUUGGACUGGGCAGAGCUCAACACUGCGUGGCAAAGUGGCUGUGGCUAGACUGCCUCUCUGGAUUCCUCGUCACUCAGCAGGGCAUCUCUGAGAGAAACGCC [A69U U143C]" class_label=FALSE
residues="UACGUAGGUGGUUUUCCCCUGAUAGCGCUAAGGGGGCCUGGAAGUUUGGACUGGGCAGAGCUCAACACAGCGUGGCAAAGUGGCUGUGGCUAGACUGCCUCUCUGGAUUCCUCGUUACUCAGCAGGGCAUCUCUGAGAGAAAUGCC [U26C C116U]" class_label=TRUE
residues="UACGUAGGUGGUUUUCCCCUGAUAGUGCUAAGGGGGCCUGGAAGCUUGGACUGGGCAGAGCUCAACACAGCGUGGCAAAGUGGCUGUGGCCAGACUGCCUCUCUGGAUUCCUCGUCACUCAGCAGGGCAUCUCUGAGAGAAAUGCC [U45C U91C]" class_label=FALSE
residues="UACGUAGGUGGUUUUCCCCUGAUAGUGCUAAGGGGGCCUAGAAGUUUGGACUGGGCAGAGCUCAACACAGCGUGGCAAAGUGGCUGCGGCUAGACUGCCUCUCUGGAUUCCUCGUCACUCAGCAGGGCAUCUCUGAGAGAAAUGCC [G40A U87C]" class_label=FALSE
residues="UACGUAGGUGGUUUUCCCCUGAUAGUGCUAAGGGGGCCUGGAAGUUUGGACUGGGCAGGGCUCAACACAGCGUGGCAAAGUGGCUGUGGCUAGAUUGCCUCUCUGGAUUCCUCGUCACUCAGCAGGGCAUCUCUGAGAGAAAUGCC [A59G C95U]" class_label=FALSE
residues="UACGUAGGAGGUUUUCCCCUGAUAGUGCUAAGGGGGCCUGGAAGUUUGGACUGGGCAGAGCUCAACACAGCGAGGCAAAGUGGCUGUGGCUAGACUGCCUCUCUGGAUUCCUCGUCACUCAGCAGGGCAUCUCUGAGAGAAAUGCC [U9A U73A]" class_label=TRUE
residues="UACGUAGGUGGUUCUCCCCUGAUAGUGCUAAGAGGGCCUGGAAGUUUGGACUGGGCAGAGCUCAACACAGCGUGGCAAAGUGGCUGUGGCUAGACUGCCUCUCUGGAUUCCUCGUCACUCAGCAGGGCAUCUCUGAGAGAAAUGCC [U14C G33A]" class_label=TRUE
residues="UACGUAGGUGGUUUUCCCCUGAUAGUGCUAAGGGGGCCUGGAAGUUUGGACUGGGCAGAGCUCAACACAGCGUGGCAAAGUGGCUGUGGCUAGACUGCCUCUCUGGACUCCUCGUCACUCAGCAGGGCAUCUCUGAGUGAAAUGCC [U108C A138U]" class_label=TRUE
residues="UACGUAGGUGGUUUUCCCCUGAUAGUGCUGAGGGGGCCUGGAAGUUUGGACUGGGCAGAGCUCAACACAGCGUGGCAAAGUGGGUGUGGCUAGACUGCCUCUCUGGAUUCCUCGUCACUCAGCAGGGCAUCUCUGAGAGAAAUGCC [A30G C84G]" class_label=FALSE
residues="UACGUAGGUGGUUUUCCCCUGAUAGUGCUAAGGGGGCCUGGAAGUUUGGACUGGGCAGAGCUCAACCCAGCGUGGCAAAGUGGCUGUGGCUAGACUGCCUCUCUGGAUUCCUCGUCACUCAGCGGGGCAUCUCUGAGAGAAAUGCC [A67C A124G]" class_label=FALSE
residues="UACGUAGGUGGAUUUCCCCUGAUAGUGCUAAGGGGGCCUGGAAGUUUGGAAUGGGCAGAGCUCAACACAGCGUGGCAAAGUGGCUGUGGCUAGACUGCCUCUCUGGAUUCCUCGUCACUCAGCAGGGCAUCUCUGAGAGAAAUGCC [U12A C51A]" class_label=TRUE

Data provenance: the RNAGym collection of RNA variant scans (doi:10.7554/elife.90254)
